# Test system: fifth-instar Heliothis virescens larvae
# method.description: Relative activity of UV-irradiated compounds in inhibiting pupal development (pupation)
# Type: in vivo
# condition.set: 200 h UV
# Description: Azadirachtin and its derivatives listed above (1.0 mg/ml absolute ethanol) were placed individually in capped quartz NMR tubes (5×180 mm) and were irradiated with two UV germicidal lights (GE, G30T8, 200-280 nm, 30 W) 1.8 m from the source at room temperature for up to 400 h. The controls were identical samples protected from exposure to UV radiation by wrapping with aluminum foil. […]

{"columns": ["molecule", "ability to inhibit pupation, in words"],
 "data": [
  ["C/C=C(\\C)C(=O)O[C@H]1C[C@@H](OC(C)=O)[C@@]2(C(=O)OC)CO[C@H]3[C@@H](O)[C@@](C)([C@]45O[C@@]4(C)[C@H]4C[C@@H]5O[C@@H]5OC=C[C@@]54O)[C@H]4[C@]1(CO[C@]4(O)C(=O)OC)[C@@H]32 [Compound 1, azadirachtin]", "did decline"],
  ["C/C=C(\\C)C(=O)OC1CC(O)C2(C(=O)OC)COC3C2C12COC(O)(C(=O)OC)C2C(C)(C12OC1(C)C1CC2OC2OC=CC21O)C3O (stereo not shown) [Compound 2, 3-deacetylazadirachtin]", "did decline"],
  ["C/C=C(\\C)C(=O)OC1CC(OC(C)=O)C2(C(=O)OC)COC3C2C12COC(O)(C(=O)OC)C2C(C)(C12OC1(C)C1CC2OC2OCCC21O)C3O (stereo not shown) [Compound 3, 22,23-dihydroazadirachtin]", "did decline"]
]}

* * *

# Test system: fifth-instar Heliothis virescens larvae
# method.description: Relative activity of UV-irradiated compounds in inhibiting adult development
# Type: in vivo
# condition.set: 200 h UV; relative to non-irradiated
measurement.kind: Relative activity, inhibiting adult development (%)
Answers are plain numbers, in %.

{"columns": ["compound", "observed.value"],
 "data": [
  ["CCC(C)C(=O)OC1CC(OC(C)=O)C2(C(=O)OC)COC3C2C12COC(O)(C(=O)OC)C2C(C)(C12OC1(C)C1CC2OC2OCCC21O)C3O (stereo not shown) [Compound 8, 2',3',22,23-tetrahydroazadirachtin]", 100.0]
]}

Please give Relative activity, inhibiting adult development for each item listed below.
1. C/C=C(\C)C(=O)O[C@H]1C[C@@H](OC(C)=O)[C@@]2(C(=O)OC)CO[C@H]3[C@@H](O)[C@@](C)([C@]45O[C@@]4(C)[C@H]4C[C@@H]5O[C@@H]5OC=C[C@@]54O)[C@H]4[C@]1(CO[C@]4(O)C(=O)OC)[C@@H]32
2. C/C=C(\C)C(=O)OC1CC(O)C2(C(=O)OC)COC3C2C12COC(O)(C(=O)OC)C2C(C)(C12OC1(C)C1CC2OC2OC=CC21O)C3O (stereo not shown)
3. C/C=C(\C)C(=O)OC1CC(OC(C)=O)C2(C(=O)OC)COC3C2C12COC(O)(C(=O)OC)C2C(C)(C12OC1(C)C1CC2OC2OCCC21O)C3O (stereo not shown) [Compound 3, 22,23-dihydroazadirachtin]

// result
1. 89.7
2. 96.0
3. 69.0

* * *

# method.description: Stability to UV irradiation by reversed phase HPLC
# Type: physicochemical
# condition.set: UV 200-280 nm, absolute ethanol, room temperature; read-out: T1/2 of UV degradation (converted)
measurement.kind: half-life
Number first, unit second.

// query State the recorded half-life for this entry: C/C=C(\C)C(=O)O[C@H]1C[C@@H](OC(C)=O)[C@@]2(C(=O)OC)CO[C@H]3[C@@H](O)[C@@](C)([C@]45O[C@@]4(C)[C@H]4C[C@@H]5O[C@@H]5OC=C[C@@]54O)[C@H]4[C@]1(CO[C@]4(O)C(=O)OC)[C@@H]32 [Compound 1, azadirachtin]
// result 25 h

* * *

# method.description: Stability to UV irradiation by reversed phase HPLC
# Format: physicochemical
# condition.set: absolute ethanol; 90 h UV; read-out: compound degraded
measurement.kind: degraded at 90 h

// query State the recorded degraded at 90 h for this entry: C/C=C(\C)C(=O)O[C@H]1C[C@@H](OC(C)=O)[C@@]2(C(=O)OC)CO[C@H]3[C@@H](O)[C@@](C)([C@]45O[C@@]4(C)[C@H]4C[C@@H]5O[C@@H]5OC=C[C@@]54O)[C@H]4[C@]1(CO[C@]4(O)C(=O)OC)[C@@H]32
// result > 80%

* * *

# method.description: Stability to UV irradiation by reversed phase HPLC
# Assay type: physicochemical
# condition.set: absolute ethanol, uv
measurement.kind: degraded at 90 h

{"columns": ["compound", "observed.value"],
 "data": [
  ["C/C=C(\\C)C(=O)OC1CC(OC(C)=O)C2(C(=O)OC)COC3C2C12COC(O)(C(=O)OC)C2C(C)(C12OC1(C)C1CC2OC2OCCC21O)C3O (centres unmarked) [Compound 3, 22,23-dihydroazadirachtin]", "> 80%"]
]}

Please look at the following compound next.
// query State the recorded degraded at 90 h for this entry: C/C=C(\C)C(=O)OC1CC(O)C2(C(=O)OC)COC3C2C12COC(O)(C(=O)OC)C2C(C)(C12OC1(C)C1CC2OC2OC=CC21O)C3O (centres unmarked) [Compound 2, 3-deacetylazadirachtin]
// result > 80%

* * *

# Test system: fifth-instar Heliothis virescens larvae
# method.description: Pupal and adult development of fifth-instar larvae injected orally with non-irradiated compounds
# Type: in vivo
# condition.set: 1.0 microgram per os, non-irradiated

{"columns": ["molecule", "system.name", "inhibition of pupation, in words"],
 "data": [
  ["C/C=C(\\C)C(=O)OC1CC(O)C2(C(=O)OC)COC3C2C12COC(O)(C(=O)OC)C2C(C)(C12OC1(C)C1CC2OC2OC=CC21O)C3O (stereo not shown) [Compound 2, 3-deacetylazadirachtin]", "fifth-instar Heliothis virescens larvae", "less effective"],
  ["C/C=C(\\C)C(=O)OC1CC(OC(C)=O)C2(C(=O)OC)COC3C2C12COC(O)(C(=O)OC)C2C(C)(C12OC1(C)C1CC2OC2OCCC21O)C3O (stereo not shown) [Compound 3, 22,23-dihydroazadirachtin]", "fifth-instar Heliothis virescens larvae", "less effective"]
]}
